Target: glutathione-S-transferase (GST) tagged LXRbeta LBD (ligand binding domain) (Homo sapiens)
Construct: purchased Invitrogen pv4658.pps
Sequence (P55055 222-460 limits assumed): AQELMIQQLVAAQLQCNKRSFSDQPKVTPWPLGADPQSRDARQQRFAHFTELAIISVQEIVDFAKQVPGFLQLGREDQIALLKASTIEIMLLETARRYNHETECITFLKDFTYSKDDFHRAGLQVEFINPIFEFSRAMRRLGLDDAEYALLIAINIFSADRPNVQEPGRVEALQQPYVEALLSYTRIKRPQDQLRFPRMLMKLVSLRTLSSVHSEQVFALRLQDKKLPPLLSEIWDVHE
Test: LanthaScreen TR-FRET Liver X Receptor Coactivator Assay, LXR beta-LBD
Type: biochemical
Details: potency (Inflection Point) of co-activator recruitment, TR-FRET; read-out: LXR beta IP
pEC50: −log10 of the molar value.
Quantity name: pEC50

> print(dat)
                                   molecule  reported
1  CN(CC(O)CO)C(=O)c1ccc(-c2cnc(N3CCN(C(=O)OC(C)(C)C)CC3)c(C#N)c2)cc1Cl (stereo not shown) [Example 5-18]      6.52

[A] CC(C)C(O)(C(=O)N1CCN(c2ncc(-c3cc(Cl)c(C(=O)N(C)C)c(Cl)c3)cc2C#N)CC1)C(F)(F)F (single isomer, unassigned) [Example 7-6]
[B] CN(C)NC(=O)c1ccc(-c2cnc(N3CCN(C(=O)OC(C)(C)C)CC3)c(C#N)c2)cc1Cl [Example 5-6]
[C] CN(C)C(=O)c1ccc(-c2ccc(N3CCN(C(=O)c4ccccc4Cl)CC3)cc2)cc1Cl [Example 4-15]
[in] Order field: pEC50 | Direction: descending (largest first) Would you mind listing the labels in the order asked for?
[out] A, B, C
(A: 7.47, B: 6.36, C: 5.78)

---

biological target: glutathione-S-transferase (GST) tagged LXRbeta LBD (ligand binding domain) (Homo sapiens, UniProt P55055); construct: purchased Invitrogen pv4658.pps; assay: LanthaScreen TR-FRET Liver X Receptor Coactivator Assay, LXR beta-LBD; assay type: biochemical; conditions: efficacy in relation to reference dual agonist T1317; read-out: LXR beta activity at max dose (%) (Emax)
Quantity name: Emax (%)

> print(dat)
                                   compound  measurement.units  reported
1  CCCCC(C)(C)C(=O)N1CCN(c2ncc(-c3ccc(C(=O)N(C)C)c(Cl)c3)cc2C#N)CC1                  %        79

[A] CN(C)C(=O)c1ccc(-c2cnc(N3CCN(C(=O)C(O)(c4ccccc4)C(F)(F)F)CC3)c(C#N)c2)cc1Cl (centres unmarked)
[B] CC(C)(C)OC(=O)N1CCN(c2ncc(-c3ccc(C(=O)N(CCCO)C4CC4)c(Cl)c3)cc2C#N)CC1
[in] Lab note: check whether A or B shows the higher recorded Emax. Could you answer with the label of the item you picked?
[out] A
(A: 98%, B: 55%)

[P] CNC(=O)c1ccc(-c2cnc(N3CCN(C(=O)OC(C)(C)C)CC3)c(C#N)c2)cc1Cl
[Q] CN(C)C(=O)c1ccc(-c2cnc(N3CCN(C(=O)C(O)(C(F)(F)F)C(F)(F)F)CC3)c(C#N)c2)cc1Cl
[in] When their Emax values are compared, which is larger, P or Q ? Returns: label corresponding to the selected item.
[out] Q

---

target: glutathione-S-transferase (GST) tagged LXRbeta LBD (ligand binding domain) (Homo sapiens, UniProt P55055); assay: LanthaScreen TR-FRET Liver X Receptor Coactivator Assay, LXR beta-LBD; details: potency (Inflection Point) of co-activator recruitment, TR-FRET; read-out: LXR beta IP
pEC50: −log10 of the molar value.
Quantity name: pEC50

The examples below pair each entry with its known result.
> print(dat)
                                   compound  quantity.name  reported
1  CN(C)C(=O)c1ccc(-c2cnc(N3CCN(S(=O)(=O)c4c(Cl)cccc4Cl)CC3)c(C#N)c2)cc1Cl [Example 1-1]          pEC50      8.15
2  CN(C)C(=O)c1ccc(-c2cnc(N3CCN(C(=O)C4(c5ccccc5)CC4)CC3)c(C#N)c2)cc1Cl [Example 2-17]          pEC50      7.57

[P] CN(C)C(=O)c1ccc(-c2cnc(N3CCN(S(=O)(=O)c4ccccc4C#N)CC3)c(C#N)c2)cc1Cl [Example 1-9]
[Q] CC(C)(C)OC(=O)N1CCN(c2ncc(-c3ccc(C(N)=O)c(Cl)c3)cc2C#N)CC1 [Example 5-2]
[in] Larger number for pEC50: P , or Q ? Field: selected label. Fill in the label of the entry you choose.
[out] P
(P: 7.66, Q: 7.03)

---

Molecular target: glutathione-S-transferase (GST) tagged LXRalpha LBD (ligand binding domain) (Homo sapiens)
Construct: purchased Invitrogen pv4655
Experiment: LanthaScreen TR-FRET Liver X Receptor Coactivator Assay, LXR alpha-LBD
Type: biochemical
Details: efficacy in relation to reference dual agonist T1317; read-out: LXR alpha activity at max dose (%) (Emax)
Protocol: While running the LanthaScreen™ TR-FRET Liver X Receptor Coactivator Assay, LXR alpha-LBD or LXR beta-LBD was added to ligand test compounds followed by addition of a mixture of a fluorescein-labelled coactivator peptide and terbium-conjugated anti-GST antibody. After an incubation period at room temperature, TR-FRET (time-resolved fluorescence resonance energy transfer) was measured using a filter-based instrument capable of TR-FRET, e.g. PerkinElmer Envision.
Quantity name: Emax (%)

Example molecules with recorded Emax:
> print(dat)
                                   molecule                             target.system  measurement.units  reported
1  CN(C)C(=O)c1ccc(-c2cnc(N3CCN(C(=O)OC(C)(C)C)CC3)c(Cl)c2)cc1Cl  glutathione-S-transferase (GST) tagged LXRalpha LBD (ligand binding domain) (Homo sapiens)                  %        48
2  CN(C)C(=O)c1ccc(-c2cnc(N3CCN(C(=O)c4c(F)cccc4Cl)CC3)c(C#N)c2)cc1Cl  glutathione-S-transferase (GST) tagged LXRalpha LBD (ligand binding domain) (Homo sapiens)                  %        41
3  CN(CC(O)c1ccccc1)C(=O)c1ccc(-c2cnc(N3CCN(C(=O)OC(C)(C)C)CC3)c(C#N)c2)cc1Cl (stereo not drawn)  glutathione-S-transferase (GST) tagged LXRalpha LBD (ligand binding domain) (Homo sapiens)                  %        30
4  CN(C)C(=O)c1ccc(-c2cnc(N3CCN(C(=O)OCc4cncs4)CC3)c(C#N)c2)cc1Cl  glutathione-S-transferase (GST) tagged LXRalpha LBD (ligand binding domain) (Homo sapiens)                  %        42
5  CCN(C)C(=O)c1ccc(-c2cnc(N3CCN(C(=O)OC(C)(C)C)CC3)c(C#N)c2)cc1Cl  glutathione-S-transferase (GST) tagged LXRalpha LBD (ligand binding domain) (Homo sapiens)                  %        54

[P] CN(C)C(=O)c1ccc(-c2cnc(N3CCN(S(=O)(=O)Cc4ccccc4Cl)CC3)c(C#N)c2)cc1Cl
[Q] CCc1cc(-c2cnc(N3CCN(C(=O)OC(C)(C)C)CC3)c(C#N)c2)ccc1C(=O)N(C)C
[in] Returns: the label, P or Q , whose recorded Emax is the lower number. # answer = label of selected item
[out] P

[P] CC(C)(C)OC(=O)N1CCN(c2ncc(-c3ccc(C(=O)N4CC[C@@H](O)C4)c(Cl)c3)cc2C#N)CC1
[Q] CN(C)C(=O)c1ccc(-c2ccc(N3CC4CCC3CN4C(=O)OC(C)(C)C)cc2)cc1Cl (stereo not drawn)
[in] For the pair P and Q , which entry has the numerically smaller recorded Emax? Use the label to indicate which entry you chose.
[out] P
(P: 37%, Q: 73%)

---

molecular target: glutathione-S-transferase (GST) tagged LXRalpha LBD (ligand binding domain) (Homo sapiens, UniProt Q13133); test: LanthaScreen TR-FRET Liver X Receptor Coactivator Assay, LXR alpha-LBD; settings: potency (Inflection Point) of co-activator recruitment, TR-FRET; read-out: LXR alpha IP
Sequence (Q13133 209-447 limits assumed): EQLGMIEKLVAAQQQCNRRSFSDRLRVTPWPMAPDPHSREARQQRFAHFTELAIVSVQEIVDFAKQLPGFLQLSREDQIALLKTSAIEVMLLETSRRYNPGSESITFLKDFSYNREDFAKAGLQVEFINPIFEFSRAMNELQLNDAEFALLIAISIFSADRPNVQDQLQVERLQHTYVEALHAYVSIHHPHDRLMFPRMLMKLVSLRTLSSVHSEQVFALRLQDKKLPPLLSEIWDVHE
Quantity name: EC50 (µM)

// worked examples, EC50 included
> print(dat)
                                   molecule  reported
1  CN(C)C(=O)c1ccc(-c2ccc(N3CCN(S(=O)(=O)c4c(Cl)cccc4Cl)CC3)cc2)cc1Cl      5.73
2  CC(C)(C)OC(=O)N1CCN(c2ncc(-c3ccc(C(=O)NCc4ncc[nH]4)c(Cl)c3)cc2C#N)CC1      1.46

[a] CN(C)C(=O)c1ccc(-c2cnc(N3CCN(C(=O)OCc4c(Cl)cccc4Cl)CC3)c(C#N)c2)cc1Cl
[b] CC(O)CN(CC(C)O)C(=O)c1ccc(-c2cnc(N3CCN(C(=O)OC(C)(C)C)CC3)c(C#N)c2)cc1Cl (stereo not shown)
[in] Could you tell me which of a and b has the lower EC50 reading? Write the label of whichever entry you select.
[out] a
